Where these numbers come from: paper PMC6131557

# Test system: KM-12
# assay-explanation: 39-cancer cell panel assay: KM-12
# Format: cell-based, human
# experimental-setup: Co
Returns: string. Value is rule met if measured GI50 (μM) KM-12 is below 6 µM, and rule not met if it is greater than or equal to it.

1) CC(C)=CCC/C(C)=C/CC/C(C)=C/Cc1c(O)c(Cl)c(C)c(C=O)c1O [Compound 8] : rule met
2) COC(=O)/C(C)=C/CC/C(C)=C/Cc1c(O)c(Cl)c(C)c(C=O)c1O [Compound 9] : rule not met
3) C/C(=C\Cc1c(O)c(Cl)c(C)c(C=O)c1O)CC/C=C(\C)C(C)O (stereo not drawn) [Compound 6] : rule not met
4) CC(=O)OC(C)/C(C)=C/CC/C(C)=C/Cc1c(O)c(Cl)c(C)c(C=O)c1O (stereo not drawn) [Compound 7] : rule met
5) C/C(=C\COC(=O)C(C)C)CC/C(C)=C/Cc1c(O)c(Cl)c(C)c(C=O)c1O [Compound 12] : rule not met
6) C/C(=C\Cc1c(O)c(Cl)c(C)c(C=O)c1O)CC/C=C(\C)[C@@H]1CC(=O)C(C)(C)O1 [Compound 1, ascofuranone] : rule not met

* * *

Quick reference for IC50 among some compounds
# system-tested: Complexes I–III
# assay-explanation: NADH-cytochrome c reductase (complexes I–III) activity, bovine mitochondria
# Type: biochemical
outcome-measure: IC50 (µM)

1) CC(/C=C/[C@@]1(C)[C@H](C)CCC(=O)[C@@H]1C)=C\Cc1c(O)c(Cl)c(C)c(C=O)c1O : 0.0033
2) C/C(=C\Cc1c(O)c(Cl)c(C)c(C=O)c1O)CC/C=C(\C)[C@@H]1CC(=O)C(C)(C)O1 : 1.5
3) CC(=O)OC(C)/C(C)=C/CC/C(C)=C/Cc1c(O)c(Cl)c(C)c(C=O)c1O (stereo not drawn) : 0.46

* * *

Quick list: IC50 per entry.
# System: DLD-1 cells
# assay-explanation: Cytotoxicity assay (Cell Counting Kit-8 / WST-8) on DLD-1 cells
# Format: cell-based, human
# experimental-setup: Homo sapiens, read-out: IC50 (μM) DLD-1 (24 h) Hypoxia nutrient (-); DLD-1, 24 h, hypoxia (1% oxygen), nutrient (-)
outcome-measure: IC50 (µM)

1) CC(=O)OC(C)/C(C)=C/CC/C(C)=C/Cc1c(O)c(Cl)c(C)c(C=O)c1O (stereo not shown) : 2
2) C/C(=C\Cc1c(O)c(Cl)c(C)c(C=O)c1O)CC/C=C(\C)[C@@H]1CC(=O)C(C)(C)O1 : 1.2
3) CC(C)=CCC/C(C)=C/CC/C(C)=C/Cc1c(O)c(Cl)c(C)c(C=O)c1O : 0.066
4) COC(=O)/C(C)=C/CC/C(C)=C/Cc1c(O)c(Cl)c(C)c(C=O)c1O : 1.6

* * *

# system-tested: human dihydroorotate dehydrogenase (HsDHODH) (Homo sapiens, UniProt Q02127)
# Construct: made in house
# Sequence (Q02127 whole entry): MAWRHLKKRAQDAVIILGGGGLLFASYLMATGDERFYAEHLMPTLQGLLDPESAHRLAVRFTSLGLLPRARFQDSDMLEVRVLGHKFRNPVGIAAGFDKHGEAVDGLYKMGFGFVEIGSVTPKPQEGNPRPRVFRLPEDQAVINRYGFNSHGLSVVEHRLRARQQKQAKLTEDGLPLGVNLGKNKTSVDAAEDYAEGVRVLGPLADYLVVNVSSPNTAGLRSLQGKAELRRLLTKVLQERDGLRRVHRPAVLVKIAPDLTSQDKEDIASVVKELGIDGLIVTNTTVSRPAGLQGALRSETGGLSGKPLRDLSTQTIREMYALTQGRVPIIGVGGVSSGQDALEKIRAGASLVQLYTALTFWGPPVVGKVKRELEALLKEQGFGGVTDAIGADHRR
# assay-explanation: Inhibition of recombinant human DHODH enzyme activity
# Assay type: biochemical
# experimental-setup: recombinant human DHODH; purified enzyme fixed at 10 nM; read-out: IC50 (nM), inhibition of human DHODH
# IC50 per record follows
outcome-measure: IC50

1) C/C(=C\Cc1c(O)c(Cl)c(C)c(C=O)c1O)CC/C=C(\C)C1CC(=O)C(C)(C)O1 (racemic) [Compound 2, racemic-AF] : 97.4 nM
2) CC(C)=CCC/C(C)=C/Cc1c(O)c(Cl)cc(C=O)c1O : > 1000 nM
3) CC(C)=CCC/C(C)=C/Cc1c(O)cc(C)c(C=O)c1O : > 1000 nM
4) CCCCCC(C)CCc1c(O)c(Cl)c(C)c(C=O)c1O (stereo not shown) : > 1000 nM

* * *

Known GI50 of a selection of molecules
# Tested on: RXF-631L
# assay-explanation: 39-cancer cell panel assay: RXF-631L
# Type: cell-based
# experimental-setup: Homo sapiens, Re
outcome-measure: GI50 (µM)

1) C/C(=C\Cc1c(O)c(Cl)c(C)c(C=O)c1O)CC/C=C(\C)[C@@H]1CC(=O)C(C)(C)O1 : 12
2) CC(=O)OC(C)/C(C)=C/CC/C(C)=C/Cc1c(O)c(Cl)c(C)c(C=O)c1O (stereo not drawn) : 7.5
3) C/C(=C\Cc1c(O)c(Cl)c(C)c(C=O)c1O)CC/C=C(\C)C(C)O (stereo not drawn) : 45
4) CC(C)=CCC/C(C)=C/CC/C(C)=C/Cc1c(O)c(Cl)c(C)c(C=O)c1O : 11
5) COC(=O)/C(C)=C/CC/C(C)=C/Cc1c(O)c(Cl)c(C)c(C=O)c1O : 8.4
6) C/C(=C\COC(=O)C(C)C)CC/C(C)=C/Cc1c(O)c(Cl)c(C)c(C=O)c1O : 16

* * *

Examples of compounds with documented inhibition at 5 µM follow.
# system-tested: Complex III (Bos taurus)
# Construct: from tissue; host or cells: bovine mitochondrial fraction / sub-mitochondrial particles
# assay-explanation: Quinol oxidase (complex III) activity, bovine mitochondria
# Type: biochemical
# experimental-setup: ubiquinol oxidase activity
outcome-measure: inhibition at 5 µM

1) CC(=O)OC(C)/C(C)=C/CC/C(C)=C/Cc1c(O)c(Cl)c(C)c(C=O)c1O (stereo not drawn) : > 80%
2) COC(=O)/C(C)=C/CC/C(C)=C/Cc1c(O)c(Cl)c(C)c(C=O)c1O : > 80%
3) CC(C)=CCC/C(C)=C/CC/C(C)=C/Cc1c(O)c(Cl)c(C)c(C=O)c1O : > 80%

* * *

Reported GI50 values follow for various compounds
# Test system: SNB-75
# assay-explanation: 39-cancer cell panel assay: SNB-75
# Assay type: cell-based
# experimental-setup: Homo sapiens, CNS
outcome-measure: GI50

1. CC(C)=CCC/C(C)=C/CC/C(C)=C/Cc1c(O)c(Cl)c(C)c(C=O)c1O [Compound 8] : 0.7 µM
2. C/C(=C\Cc1c(O)c(Cl)c(C)c(C=O)c1O)CC/C=C(\C)C(C)O (centres unmarked) [Compound 6] : 59 µM
3. COC(=O)/C(C)=C/CC/C(C)=C/Cc1c(O)c(Cl)c(C)c(C=O)c1O [Compound 9] : 9.7 µM
4. C/C(=C\COC(=O)C(C)C)CC/C(C)=C/Cc1c(O)c(Cl)c(C)c(C=O)c1O [Compound 12] : 28 µM
5. C/C(=C\Cc1c(O)c(Cl)c(C)c(C=O)c1O)CC/C=C(\C)[C@@H]1CC(=O)C(C)(C)O1 [Compound 1, ascofuranone] : 23 µM

* * *

# System: MDA-MB-231
# assay-explanation: 39-cancer cell panel assay: MDA-MB-231
# Format: cell-based
# experimental-setup: Homo sapiens, Br
outcome-measure: GI50

1) C/C(=C\Cc1c(O)c(Cl)c(C)c(C=O)c1O)CC/C=C(\C)C(C)O (stereo not shown) : 36 µM
2) C/C(=C\COC(=O)C(C)C)CC/C(C)=C/Cc1c(O)c(Cl)c(C)c(C=O)c1O : 10 µM
3) CC(C)=CCC/C(C)=C/CC/C(C)=C/Cc1c(O)c(Cl)c(C)c(C=O)c1O : 2.8 µM
4) CC(=O)OC(C)/C(C)=C/CC/C(C)=C/Cc1c(O)c(Cl)c(C)c(C=O)c1O (stereo not shown) : 11 µM

* * *

# GI50 listing for each entry below
# System: ACHN
# assay-explanation: 39-cancer cell panel assay: ACHN
# Type: cell-based
# experimental-setup: Homo sapiens, Re
outcome-measure: GI50 (µM)

1) C/C(=C\Cc1c(O)c(Cl)c(C)c(C=O)c1O)CC/C=C(\C)[C@@H]1CC(=O)C(C)(C)O1 : 10
2) COC(=O)/C(C)=C/CC/C(C)=C/Cc1c(O)c(Cl)c(C)c(C=O)c1O : 9.9
3) CC(=O)OC(C)/C(C)=C/CC/C(C)=C/Cc1c(O)c(Cl)c(C)c(C=O)c1O (stereo not drawn) : 9.9
